# measurement_target: human ether-à-go-go-related gene (hERG) potassium channel (human, UniProt Q12809);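 also: peak tail current of the secondary pulse compared with the same well before compound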
# Sequence (Q12809 whole entry, looked up): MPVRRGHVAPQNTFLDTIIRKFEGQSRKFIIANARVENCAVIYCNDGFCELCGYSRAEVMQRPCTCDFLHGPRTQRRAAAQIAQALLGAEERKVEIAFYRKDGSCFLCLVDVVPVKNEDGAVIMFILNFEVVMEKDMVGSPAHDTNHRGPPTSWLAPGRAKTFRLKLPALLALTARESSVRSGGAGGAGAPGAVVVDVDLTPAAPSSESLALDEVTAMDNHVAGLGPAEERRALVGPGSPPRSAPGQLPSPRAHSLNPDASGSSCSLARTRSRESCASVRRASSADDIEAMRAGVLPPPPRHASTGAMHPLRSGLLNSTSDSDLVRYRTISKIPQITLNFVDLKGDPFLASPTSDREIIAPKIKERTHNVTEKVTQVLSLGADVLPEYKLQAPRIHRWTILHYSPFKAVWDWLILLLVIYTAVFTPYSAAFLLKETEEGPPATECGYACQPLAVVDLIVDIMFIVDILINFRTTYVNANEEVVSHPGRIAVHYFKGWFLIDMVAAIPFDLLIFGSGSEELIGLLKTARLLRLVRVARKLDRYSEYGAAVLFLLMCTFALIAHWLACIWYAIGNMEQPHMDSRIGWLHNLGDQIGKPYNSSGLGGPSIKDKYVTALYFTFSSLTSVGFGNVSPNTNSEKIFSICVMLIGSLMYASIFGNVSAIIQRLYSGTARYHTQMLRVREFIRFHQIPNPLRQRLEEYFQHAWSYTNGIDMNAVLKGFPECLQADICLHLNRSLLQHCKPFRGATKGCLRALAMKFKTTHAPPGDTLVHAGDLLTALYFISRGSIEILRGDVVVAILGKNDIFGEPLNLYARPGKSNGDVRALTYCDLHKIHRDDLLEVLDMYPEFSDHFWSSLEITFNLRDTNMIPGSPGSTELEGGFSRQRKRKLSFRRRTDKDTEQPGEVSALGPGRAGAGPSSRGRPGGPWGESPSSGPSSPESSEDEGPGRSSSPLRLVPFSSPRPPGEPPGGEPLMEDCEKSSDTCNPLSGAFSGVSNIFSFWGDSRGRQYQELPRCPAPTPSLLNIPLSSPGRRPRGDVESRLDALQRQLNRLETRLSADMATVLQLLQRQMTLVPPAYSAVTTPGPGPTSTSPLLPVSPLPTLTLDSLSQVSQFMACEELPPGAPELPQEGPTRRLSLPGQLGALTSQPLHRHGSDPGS
# procedure_summary: primary screen, population patch clamp on CHO cells stably expressing hERG; higher = less effect of the substance
Hit rate of the full screen: of about 310,000 compounds, about 14,000 (4.5%) showed an effect of 50% or more. Effects have a minus sign here. The list comes from a sample in which strong results are over-represented; it also holds close analogues and randomly drawn compounds.
This listing pairs compounds with measured hERG current change (%, negative = inhibition) at 10uM.
measurement_name: hERG current change (%, negative = inhibition) at 10uM

| compound | measurement_target | assay_value |
| --- | --- | --- |
| CCc1noc(C)c1C(=O)Nc1ccc(Cl)c(S(=O)(=O)N2CCCCC2)c1 | human ether-à-go-go-related gene (hERG) potassium channel (human, UniProt Q12809) | -71.2% |
| COC(=O)c1cccc(NC(=O)CCNC(=O)c2ccco2)c1 | human ether-à-go-go-related gene (hERG) potassium channel (human, UniProt Q12809) | 18.8% |
| CCc1noc(C)c1C(=O)Nc1ccc(C)c(S(=O)(=O)N2CCCCCC2)c1 | human ether-à-go-go-related gene (hERG) potassium channel (human, UniProt Q12809) | -45.6% |
| CCOc1ccc(S(=O)(=O)N2CCCCC2)cc1NC(=O)c1c(CC)noc1C | human ether-à-go-go-related gene (hERG) potassium channel (human, UniProt Q12809) | 11.8% |
| O=C(NC(=S)Nc1cc(C(F)(F)F)ccc1N1CCOCC1)c1ccco1 | human ether-à-go-go-related gene (hERG) potassium channel (human, UniProt Q12809) | 3.6% |
| Clc1ccc(CN2CCN(c3ncccn3)CC2)cc1 | human ether-à-go-go-related gene (hERG) potassium channel (human, UniProt Q12809) | -4.03% |
| CCCCC(NC(=O)c1cccc(Br)c1)C(=O)O (stereo not shown) | human ether-à-go-go-related gene (hERG) potassium channel (human, UniProt Q12809) | 9.42% |
| COCCN=C1NN=C(c2ccc(C)c([N+](=O)[O-])c2)CS1 | human ether-à-go-go-related gene (hERG) potassium channel (human, UniProt Q12809) | 11.7% |
| CCc1noc(C)c1C(=O)Nc1ccc(S(=O)(=O)N2CCCCC2)cc1 | human ether-à-go-go-related gene (hERG) potassium channel (human, UniProt Q12809) | -7.54% |
| CCOn1c(=O)c(-c2ccc(Br)cc2)[n+]([O-])c2ccccc21 | human ether-à-go-go-related gene (hERG) potassium channel (human, UniProt Q12809) | 13.6% |
